assayed_target: CDK4/cyclin D1 (Homo sapiens (Human), UniProt P11802)
Sequence (P11802 whole entry): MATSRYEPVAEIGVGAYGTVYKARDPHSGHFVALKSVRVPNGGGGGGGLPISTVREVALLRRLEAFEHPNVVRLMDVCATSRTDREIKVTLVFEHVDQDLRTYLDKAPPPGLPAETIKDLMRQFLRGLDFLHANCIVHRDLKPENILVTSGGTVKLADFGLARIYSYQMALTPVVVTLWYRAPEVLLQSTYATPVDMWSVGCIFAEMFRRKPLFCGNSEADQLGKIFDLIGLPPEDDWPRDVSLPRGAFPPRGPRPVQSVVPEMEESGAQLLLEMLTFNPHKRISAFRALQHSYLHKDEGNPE
Sequence (P24385 whole entry partner): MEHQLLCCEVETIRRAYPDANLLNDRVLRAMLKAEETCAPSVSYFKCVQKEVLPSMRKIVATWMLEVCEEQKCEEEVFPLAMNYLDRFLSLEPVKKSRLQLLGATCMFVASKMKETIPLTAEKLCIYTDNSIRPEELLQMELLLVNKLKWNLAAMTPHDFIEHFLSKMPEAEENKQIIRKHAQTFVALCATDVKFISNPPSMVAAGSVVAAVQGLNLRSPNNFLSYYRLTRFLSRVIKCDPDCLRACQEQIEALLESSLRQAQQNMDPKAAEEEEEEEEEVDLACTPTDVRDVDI
conditions: read-out: Kinase inhibition CDK4/cyclin D1 IC50
Items are presented alongside their recorded IC50.
reported_endpoint: IC50

# compound, assay_result
measured = [
    ("CCC(O)[C@@H](CC)Nc1nc(NCc2cccnc2)c2ncn(C(C)C)c2n1 (mixture of isomers)", "25 µM"),
    ("CC[C@@H](Nc1nc(NCc2cccnc2)c2ncn(C(C)C)c2n1)C(O)C(C)(C)C (mixture of isomers)", "24 µM"),
    ("CCC(O)[C@H](CC)Nc1nc(NCc2cccnc2)c2ncn(C(C)C)c2n1 (mixture of isomers)", "11 µM"),
    ("CC[C@H](Nc1nc(NCc2cccnc2)c2ncn(C(C)C)c2n1)C(O)C(C)C (mixture of isomers)", "31 µM"),
]
